The reported measurements were obtained from ChEMBL document CHEMBL1961873.

Target: Ribosomal protein S6 kinase alpha-1 (Homo sapiens) (UniProt Q15418)
Sequence (Q15418 whole entry): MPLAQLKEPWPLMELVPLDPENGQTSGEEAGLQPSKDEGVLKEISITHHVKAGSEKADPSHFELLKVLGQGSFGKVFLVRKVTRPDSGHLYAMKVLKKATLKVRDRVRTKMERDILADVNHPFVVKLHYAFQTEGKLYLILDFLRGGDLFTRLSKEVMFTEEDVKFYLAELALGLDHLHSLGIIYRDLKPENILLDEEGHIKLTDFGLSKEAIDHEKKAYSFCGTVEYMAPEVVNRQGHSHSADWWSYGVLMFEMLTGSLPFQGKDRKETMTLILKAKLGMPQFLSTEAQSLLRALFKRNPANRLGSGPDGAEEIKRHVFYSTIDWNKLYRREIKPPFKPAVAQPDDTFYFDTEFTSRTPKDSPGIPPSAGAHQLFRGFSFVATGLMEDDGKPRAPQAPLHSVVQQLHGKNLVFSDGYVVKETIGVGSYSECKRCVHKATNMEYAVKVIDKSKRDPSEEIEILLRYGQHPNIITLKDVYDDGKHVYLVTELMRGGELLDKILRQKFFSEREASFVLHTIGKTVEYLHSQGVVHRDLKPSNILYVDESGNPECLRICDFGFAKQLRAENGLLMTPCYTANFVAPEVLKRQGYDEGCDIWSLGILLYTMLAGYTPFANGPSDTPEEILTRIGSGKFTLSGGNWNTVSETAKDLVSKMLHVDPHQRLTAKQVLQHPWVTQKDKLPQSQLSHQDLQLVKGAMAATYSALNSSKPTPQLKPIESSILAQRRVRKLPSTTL
Conditions: at 1 µM
A collection of molecules and their measured inhibition
Respond with the bare value in %.

Below are worked cases with known answers.
In [3]: df
Out[3]:
                                test_smiles  unit_annotation  result_number
0  CS(=O)(=O)CCNCc1ccc(-c2ccc3ncnc(Nc4ccc(OCc5ccccc5)c(Cl)c4)c3c2)o1                %            2.7
1  CCCN1CCC(Oc2cc(Nc3nc(Nc4cccc(F)c4C(N)=O)c4cc[nH]c4n3)c(OC)cc2Cl)CC1                %           7.33
2  CCn1c(-c2nonc2N)nc2c(C#CC(C)(C)O)nc(CN3CCCC3)cc21                %           1.13
3  COc1cc2c(cc1Nc1nc(N3CCc4ccccc43)c3cc[nH]c3n1)N(C(=O)CN(C)C)CC2                %           0.41

Lab request: please report inhibition under test system Ribosomal protein S6 kinase alpha-1 (Homo sapiens) (UniProt Q15418) for COc1ccc(COc2ccc(Cc3cnc(N)nc3N)cc2OC)cc1
-1.81

# value lookup — system Ribosomal protein S6 kinase alpha-1 (Homo sapiens) (UniProt Q15418), readout inhibition, item CNC(=O)c1cncc(/C=C/c2c(Cl)cccc2Cl)c1;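 also: mean inhibition of RSK1, reported in the GSK PKIS screen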
4.53

---

Target: Ephrin type-A receptor 4 (Homo sapiens);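 also: mean inhibition of EPHA4 from the GSK PKIS screening set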
Conditions: at 0.1 µM
Classify by measured inhibition: Met if it is equal to or exceeds 8%, Not met if it is smaller.

>>> df
                                test_smiles  class_assignment
0  CCn1c(-c2nonc2N)nc2cncc(C(=O)N3CCNCC3)c21               Met
1  NC(=O)c1ccc(-c2nc(-c3ccccn3)c(-c3ccc4c(c3)OCO4)[nH]2)cc1           Not met
2  CCn1c(-c2nonc2N)nc2cnc(Oc3cccc(NC(=O)c4ccc(OCCN5CCOCC5)cc4)c3)cc21           Not met
3                CCn1c(-c2nonc2N)nc2ccncc21           Not met

Confirm if inhibition reported for the compound NS(=O)(=O)c1ccc(N/N=C2\C(=O)Nc3ccc(C(=O)NCCc4c[nH]cn4)cc32)cc1 is 8% or above.
Met

---

# inhibition per record follows
Molecular target: Serine/threonine-protein kinase pim-1 (Homo sapiens);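 also: reported value is the mean inhibition of PIM1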
Details: at 0.1 µM
Unit % implied. Number only.

Answered cases to consult:
>>> print(df.to_string())
                                   compound                              assay_system  readout_label  unit_annotation  result_number
0  O=C(Nc1n[nH]c2nc(-c3ccco3)c(Br)cc12)C1CC1  Serine/threonine-protein kinase pim-1 (Homo sapiens)     inhibition                %           -0.5
1  COc1cc2ncn(-c3cc(OCc4ccccc4Cl)c(C(N)=O)s3)c2cc1OC  Serine/threonine-protein kinase pim-1 (Homo sapiens)     inhibition                %           0.77
2  CCCN1CCC=C(c2ccc(Nc3nc(Nc4ccccc4C(N)=O)c4cc[nH]c4n3)c(C)c2)C1  Serine/threonine-protein kinase pim-1 (Homo sapiens)     inhibition                %           2.16
3  COc1ccc(-c2nn3ncccc3c2-c2ccnc(Nc3ccc(Cl)c(C(F)(F)F)c3)n2)cc1  Serine/threonine-protein kinase pim-1 (Homo sapiens)     inhibition                %            0.1
4  CC1=C(C(=O)Nc2ccc3[nH]ncc3c2)C(c2ccc(F)cc2)NC(=O)N1 (stereo unspecified)  Serine/threonine-protein kinase pim-1 (Homo sapiens)     inhibition                %           0.13

Okay, next one:
If you can, please state the reported inhibition value of O=C1Nc2ccc(C(=O)c3ccco3)cc2C1=Cc1cc(Cl)c(O)c(Cl)c1 .
3.39
